Test system: NIH3T3
protocol.summary: qHTS assay to identify novel small-molecules to repurpose for Merkel cell carcinoma treatment (AID 1296009); note: nearly all actives have a fitted effect of over 60% in size
test.conditions: MCC and control cell lines, CellTiter-Glo viability, 72 h; at 44.8 µM (top of the series) unless noted
Inconclusive results are not listed. Activity calls are given as the source filed them. Calls come from the whole dose curve; as a rule, active = well fitted inhibition curve with a large enough effect; inconclusive = small, poorly fitted or top-dose-only effect; inactive = flat fitted curve, though single readings scatter.
measured.property: outcome

{"columns": ["compound", "outcome"],
 "data": [
  ["OCCC#Cc1nc(-c2ccc(F)cc2)c(-c2ccncc2)n1CCCc1ccccc1", "inactive"],
  ["Cc1ccccc1C(C(=O)NC1CCCC1)N(C(=O)Cn1cnc2ccccc21)c1cccc(F)c1 (centres undefined)", "inactive"],
  ["Cc1cc(SCc2sc(-c3ccc(C(F)(F)F)cc3)nc2C)ccc1OCC(=O)O", "inactive"],
  ["COc1ccc([C@@H]2CC(=O)c3c(O)cc(O[C@@H]4O[C@H](CO[C@@H]5O[C@@H](C)[C@H](O)[C@@H](O)[C@@H]5O)[C@@H](O)[C@H](O)[C@@H]4O)cc3O2)cc1O", "inactive"],
  ["Cc1cnc(Nc2ccc(OCCN3CCCC3)cc2)nc1Nc1cccc(S(=O)(=O)NC(C)(C)C)c1", "inactive"],
  ["C1COC(NC(C2CC2)C2CC2)=N1", "inactive"],
  ["CC(C=CC1=C(C)CCCC1(C)C)=CC=CC(C)=CC(=O)O", "inactive"],
  ["CNC(=O)c1ccc(C)c(-n2c(C)cc(OCc3ccc(F)cc3F)c(Br)c2=O)c1", "inactive"]
]}

Enter reported outcome observed with NIH3T3 for "O=C1CCc2cc(OCCCCc3nnnn3C3CCCCC3)ccc2N1"
inactive
